Test system: Hepatitis C virus NS3/4A protease
Experiment: Selectivity profile for inhibitors of NSP2Pro chikungunya virus (CHIKV): NS34A-HCV Counterscreen (AID 1964106); also: nearly all actives have a fitted effect of over 55% in size
Settings: HCV NS3/4A protease biochemical counterscreen; series mostly up to 50.9 µM
The list shows a part of the results. Records with an inconclusive call do not appear. The source made the active and inactive calls. Calls follow the shape of the full dose curve.
Respond only with the outcome that fits, drawn from YES (active), NO (inactive)

Below, 4 compounds whose answers are already recorded.
| COMPOUND | TARGET SYSTEM | GROUP |
| --- | --- | --- |
| CC(=O)N[C@@H](C(=O)O[C@H]1CCC(C)(C)[C@@H]2CCC3=C(COC3=O)[C@@]12C)C(C)C | Hepatitis C virus NS3/4A protease | NO |
| N#CSc1cc(SC#N)c(N)nc1N | Hepatitis C virus NS3/4A protease | NO |
| C=CC(=O)c1ccc2ccccc2c1 | Hepatitis C virus NS3/4A protease | NO |
| C=Cc1c(C)c2cc3nc(cc4[nH]c(cc5nc(cc1[nH]2)C(C)=C5CCC(=O)O)c(CCC(=O)OC)c4C)[C@@]1(C)C3=CC=C(C(=O)OC)[C@H]1C(=O)OC | Hepatitis C virus NS3/4A protease | NO |

Q: Identify the outcome logged in this assay for the compound shown: "Cn1nnnc1Sc1ncnc2n[nH]c(-c3cccc(S(C)(=O)=O)c3)c12"
A: YES

Q: Identify the outcome logged in this assay for the compound shown: "CCOc1ccc(NC(=O)c2c(NC(=O)Cc3ccccc3)sc3c2CCCCC3)cc1"
A: NO

Q: Identify the outcome logged in this assay for the compound shown: CCOc1ccc(NC(=O)c2c(NC(=O)Cc3ccccc3)sc3c2CCC(C)C3)cc1 (centres undefined)
A: NO

Q: Identify the outcome logged in this assay for the compound shown: "CC1=C(/C=C/C(C)=C/C=C/C(C)=C/C=C/C=C(C)/C=C/C=C(C)/C=C/C2=C(C)CCCC2(C)C)C(C)(C)CCC1"
A: NO

Q: Identify the outcome logged in this assay for the compound shown: C[C@@H]1C[C@@H](O)[C@@]23CO[C@]2(CO)C[C@@H](O)CC3[C@@]12CC(c1ccoc1)OC2=O (some centres undefined)
A: YES

Q: Identify the outcome logged in this assay for the compound shown: CCC(C)C(=O)OC1C(C)C2(O)C(C=C(CO)CC3(O)C(=O)C(C)=CC32)C2C(C)(C)C12OC(=O)C(C)C (centres undefined)
A: NO
